# study.system: UniProt P29758
# Sequence (P29758 whole entry): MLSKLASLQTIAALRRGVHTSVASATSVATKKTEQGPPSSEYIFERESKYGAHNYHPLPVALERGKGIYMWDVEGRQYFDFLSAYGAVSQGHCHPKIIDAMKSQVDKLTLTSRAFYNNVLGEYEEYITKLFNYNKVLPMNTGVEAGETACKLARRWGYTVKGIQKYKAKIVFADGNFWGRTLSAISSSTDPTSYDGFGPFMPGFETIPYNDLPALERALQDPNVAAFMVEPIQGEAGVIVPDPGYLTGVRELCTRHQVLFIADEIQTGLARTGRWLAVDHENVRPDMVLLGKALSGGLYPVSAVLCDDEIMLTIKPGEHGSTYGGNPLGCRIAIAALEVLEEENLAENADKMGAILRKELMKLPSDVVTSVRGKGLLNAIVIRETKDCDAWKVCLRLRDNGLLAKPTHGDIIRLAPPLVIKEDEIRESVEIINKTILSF
# assay.name: Inhibition of ornithine delta-amino transferase activity in mouse liver mitochondria
Active and inactive are the calls of the source. No cut-off for these calls is given here.
Log the outcome using a class from active, inactive

Could you please tell me the result logged for C#CC(N)CCC(=O)O (centres undefined) in this assay? active

Could you please tell me the result logged for CC(C)[C@H](O)C(=O)N[C@H]1Cc2ccc3c(c2)[C@]24C5=C(N=C(O5)[C@H](C(C)C)NC1=O)c1nc(Cl)c(o1)-c1c(Cl)[nH]c5cccc(c15)-c1cccc2c1O[C@@H]4O3 in this assay? inactive

Could you please tell me the result logged for CC(CCCCNC(=O)CCCC[C@@H]1SC[C@@H]2NC(=O)N[C@@H]21)[C@H](O)C(=O)N[C@H]1Cc2ccc3c(c2)[C@]24C5=C(N=C(O5)[C@H](C(C)C)NC1=O)c1nc(Cl)c(o1)-c1c(Cl)[nH]c5cccc(c15)-c1cccc2c1O[C@@H]4O3 (some centres undefined) in this assay? inactive

Could you please tell me the result logged for CC(C)[C@H](O)C(=O)N[C@H]1Cc2ccc3c(c2)[C@]24C5=C(N=C(O5)[C@H](C(C)C)NC1=O)c1nc(Cl)c(o1)-c1c(Cl)[nH]c5cccc(c15)-c1cccc2c1N[C@@H]4O3 in this assay? inactive

The reported measurements were obtained from ChEMBL document CHEMBL1147063.
